Test Summary: Pharmacokinetic determination in SD rats
Format: in vivo
Assay Context: male, rat, po, gavage 10 mg/kg, plasma, read-out: Peak concentration Cmax
Assay Metric: Cmax (ng/mL)
Express your answer in ng/mL, writing the number without its unit.

## Task Which Cmax value belongs to COc1c([C@H]2[C@H](C(=O)Nc3ccnc(C(N)=O)c3)O[C@@](C)(C(F)(F)F)[C@H]2C)ccc(F)c1F [Reference compound, reference compound] ?
## Result 216

* * *

Test Summary: Pharmacokinetic determination in SD rats
Type: in vivo
Assay Context: rat, in vivo, po, gavage 10 mg/kg, plasma, read-out: Half-life t1/2 (converted)
Assay Metric: half-life (h)
Write it as a number; the unit h goes unstated.

## Task Return reported half-life; argument: COCCOc1c([C@H]2[C@H](C(=O)Nc3ccc(F)c(C(=N)NO)c3)O[C@@](C)(C(F)(F)F)[C@H]2C)ccc(F)c1F [Example 10]
## Result 1.6
